The values you see were collected from patent US11945798B2.

Target: EGFR del19/T790M/C797S (Homo sapiens, UniProt P00533, C797S/DEL746-750/T790M)
Sequence (P00533 with tags, fused parts or gaps DEL746-750/T790M/C797S): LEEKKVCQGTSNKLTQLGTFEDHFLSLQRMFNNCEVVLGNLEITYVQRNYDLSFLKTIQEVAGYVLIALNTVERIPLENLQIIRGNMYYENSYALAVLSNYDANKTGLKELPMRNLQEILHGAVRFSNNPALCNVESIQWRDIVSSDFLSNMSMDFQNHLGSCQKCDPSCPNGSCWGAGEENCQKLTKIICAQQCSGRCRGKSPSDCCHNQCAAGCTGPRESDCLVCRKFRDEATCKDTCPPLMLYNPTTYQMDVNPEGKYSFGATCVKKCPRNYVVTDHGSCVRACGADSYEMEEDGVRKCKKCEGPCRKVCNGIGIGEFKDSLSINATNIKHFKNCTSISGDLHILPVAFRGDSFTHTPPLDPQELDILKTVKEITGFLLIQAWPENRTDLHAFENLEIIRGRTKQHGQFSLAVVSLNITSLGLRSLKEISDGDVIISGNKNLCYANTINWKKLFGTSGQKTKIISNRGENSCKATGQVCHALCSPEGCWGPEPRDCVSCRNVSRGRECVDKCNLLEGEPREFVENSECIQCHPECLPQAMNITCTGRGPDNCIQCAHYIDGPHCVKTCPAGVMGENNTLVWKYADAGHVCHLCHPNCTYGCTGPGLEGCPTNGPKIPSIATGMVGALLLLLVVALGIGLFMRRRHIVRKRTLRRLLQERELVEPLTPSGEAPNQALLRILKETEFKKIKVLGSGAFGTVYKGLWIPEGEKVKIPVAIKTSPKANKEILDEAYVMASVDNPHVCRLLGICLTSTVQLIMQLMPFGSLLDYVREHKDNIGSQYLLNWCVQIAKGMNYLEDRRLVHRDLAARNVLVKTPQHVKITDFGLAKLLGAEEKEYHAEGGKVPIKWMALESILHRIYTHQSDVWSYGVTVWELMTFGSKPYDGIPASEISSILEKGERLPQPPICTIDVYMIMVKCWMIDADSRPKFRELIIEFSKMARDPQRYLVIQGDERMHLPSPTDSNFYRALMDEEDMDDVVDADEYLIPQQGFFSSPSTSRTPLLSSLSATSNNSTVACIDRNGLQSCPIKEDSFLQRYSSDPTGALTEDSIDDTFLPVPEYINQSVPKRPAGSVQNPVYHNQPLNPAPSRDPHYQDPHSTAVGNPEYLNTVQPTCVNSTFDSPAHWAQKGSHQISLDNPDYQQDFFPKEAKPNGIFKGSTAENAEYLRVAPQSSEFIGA
Assay: Biochemical EGFR kinase assay (Lance Ultra TR-FRET), del19/T790M/C797S
Settings: Km ATP; read-out: IC50 del19/T790M/C797S (nM) Km ATP
The class of a record is decided solely by its measured IC50; consult lo (below 1 nM), mid (1 nM to below 5 nM), hi (5 nM or more)

// below: answered molecules
molecule | category
O=C(c1cnc(Nc2ccnc(-c3cnn(S(=O)(=O)C4CC4)c3)n2)cc1N[C@H]1CC[C@](O)(CO)CC1)C1CC1 [Example 86] | lo
O=C(c1cnc(Nc2ccnc(-c3cnn(S(=O)(=O)C4CC4)c3)n2)cc1NCC1CCN(CC2CC2)CC1)C1CC1 [Example 18] | hi
CN(C)C[C@H]1CC[C@H](CNc2cc(Nc3ccnc(-c4cnn(C5CC5)c4)n3)ncc2C(=O)C2CC2)CC1 [Example 60] | hi
O=C(c1cnc(Nc2ccnc(-c3cnn(S(=O)(=O)C4CC4)c3)n2)cc1NCCCCF)C1CC1 [Example 4] | mid
CN(C)C[C@H]1CC[C@H](CNc2cc(Nc3ccnc(-c4cnn(CC5CC5)c4)n3)ncc2C(=O)C2CC2)CC1 [Example 61] | hi

Problem: Band for the recorded IC50 of CN(C)C[C@H]1CC[C@H](CNc2cc(Nc3ccnc(-c4cnn(S(=O)(=O)C5CC5)c4)n3)ncc2C(=O)N2CC(F)(F)C2)CC1 [Example 82] ?
Result: mid

Problem: Band for the recorded IC50 of O=C(c1cnc(Nc2ccnc(-c3cnn(S(=O)(=O)C4CC4)c3)n2)cc1NC1CC1)C1CC1 [Example 2] ?
Result: hi

Problem: Band for the recorded IC50 of CC(NCC1CCC(CNc2cc(Nc3ccnc(-c4cnn(S(=O)(=O)C5CC5)c4)n3)ncc2C(=O)C2CC2)CC1)C(F)F (centres unmarked) [Example 73] ?
Result: hi

Problem: Band for the recorded IC50 of O=C(c1cnc(Nc2ccnc(-c3cnn(S(=O)(=O)C4CC4)c3)n2)cc1NC[C@H]1CC[C@H](Cn2ccnc2)CC1)C1CC1 [Example 43] ?
Result: mid

Problem: Band for the recorded IC50 of C[C@@H](O)CCNc1cc(Nc2ccnc(-c3cnn(S(=O)(=O)C4CC4)c3)n2)ncc1C(=O)C1CC1 [Example 11] ?
Result: lo

Problem: Band for the recorded IC50 of CN(C)Cc1ccc(CNc2cc(Nc3ccnc(-c4cnn(S(=O)(=O)C5CC5)c4)n3)ncc2C(=O)C2CC2)cn1 [Example 19] ?
Result: mid

Problem: Band for the recorded IC50 of O=C(NCCF)c1cnc(Nc2ccnc(-c3cnn(S(=O)(=O)C4CC4)c3)n2)cc1N[C@H]1CC[C@@H](NCCF)CC1 [Example 77] ?
Result: lo

---

Molecular target: EGFR wildtype (WT) (Homo sapiens, UniProt P00533)
Sequence (P00533 25-1210): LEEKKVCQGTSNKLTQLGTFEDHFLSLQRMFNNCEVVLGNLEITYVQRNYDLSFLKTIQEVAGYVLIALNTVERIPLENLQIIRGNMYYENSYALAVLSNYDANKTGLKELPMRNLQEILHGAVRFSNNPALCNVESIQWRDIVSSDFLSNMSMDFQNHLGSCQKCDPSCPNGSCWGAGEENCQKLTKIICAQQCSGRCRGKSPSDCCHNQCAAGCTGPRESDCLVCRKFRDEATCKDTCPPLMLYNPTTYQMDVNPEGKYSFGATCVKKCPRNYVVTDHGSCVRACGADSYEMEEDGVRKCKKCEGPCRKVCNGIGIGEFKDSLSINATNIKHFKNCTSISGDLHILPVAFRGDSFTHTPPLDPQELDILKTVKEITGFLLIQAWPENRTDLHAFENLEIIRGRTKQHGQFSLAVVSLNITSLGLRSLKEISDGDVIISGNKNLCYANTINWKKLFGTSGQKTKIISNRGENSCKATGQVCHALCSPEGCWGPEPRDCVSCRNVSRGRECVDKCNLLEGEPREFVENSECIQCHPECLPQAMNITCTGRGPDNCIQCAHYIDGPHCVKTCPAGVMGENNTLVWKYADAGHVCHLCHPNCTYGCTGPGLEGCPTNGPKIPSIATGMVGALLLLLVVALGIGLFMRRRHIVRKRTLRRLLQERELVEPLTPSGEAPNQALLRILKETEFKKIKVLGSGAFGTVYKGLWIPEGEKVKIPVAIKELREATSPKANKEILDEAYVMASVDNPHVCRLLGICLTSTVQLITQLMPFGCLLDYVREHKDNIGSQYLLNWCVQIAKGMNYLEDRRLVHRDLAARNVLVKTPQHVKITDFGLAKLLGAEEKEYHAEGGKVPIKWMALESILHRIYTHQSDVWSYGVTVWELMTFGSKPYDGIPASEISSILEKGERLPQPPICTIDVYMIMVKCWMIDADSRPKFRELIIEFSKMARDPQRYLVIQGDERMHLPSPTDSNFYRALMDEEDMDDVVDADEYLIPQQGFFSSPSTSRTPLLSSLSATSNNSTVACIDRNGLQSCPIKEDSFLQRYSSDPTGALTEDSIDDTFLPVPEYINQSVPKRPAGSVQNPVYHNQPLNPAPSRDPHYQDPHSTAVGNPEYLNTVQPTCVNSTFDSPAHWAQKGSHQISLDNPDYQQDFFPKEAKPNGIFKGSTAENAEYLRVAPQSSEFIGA
Assay: Biochemical EGFR kinase assay (Lance Ultra TR-FRET), wildtype
Details: Km ATP; read-out: IC50 WT (nM) Km ATP
measure: IC50 (nM)
Express your answer in nM, writing the number without its unit.

compound | study system | IC50 / nM
O=C(c1cnc(Nc2ccnc(-c3cnn(S(=O)(=O)C4CC4)c3)n2)cc1NCC1CCCCO1)C1CC1 (stereo not shown) [Example 10] | EGFR wildtype (WT) (Homo sapiens, UniProt P00533) | 1170
O=C(NCCF)c1cnc(Nc2ccnc(-c3cnn(S(=O)(=O)C4CC4)c3)n2)cc1N[C@H]1CC[C@@H](NCCF)CC1 [Example 77] | EGFR wildtype (WT) (Homo sapiens, UniProt P00533) | 57.4
CN(C)C[C@H]1CC[C@H](CNc2cc(Nc3ccnc(-c4cnn(S(=O)(=O)C5CC5)c4)n3)ncc2C(=O)N2CC(F)(F)C2)CC1 [Example 82] | EGFR wildtype (WT) (Homo sapiens, UniProt P00533) | 76.2
CC(=O)c1cnc(Nc2ccnc(-c3cnn(S(=O)(=O)C4CC4)c3)n2)cc1OC[C@H]1CC[C@H](CN(C)C)CC1 [Example 65] | EGFR wildtype (WT) (Homo sapiens, UniProt P00533) | 389
C[C@]1(O)CC[C@@H](Nc2cc(Nc3ccnc(-c4cnn(S(=O)(=O)C5CC5)c4)n3)ncc2C(=O)C(F)F)CC1 [Example 48] | EGFR wildtype (WT) (Homo sapiens, UniProt P00533) | 553
O=C(c1cnc(Nc2ccnc(-c3cnn(S(=O)(=O)C4CC4)c3)n2)cc1NCCF)C1CC1 [Example 3] | EGFR wildtype (WT) (Homo sapiens, UniProt P00533) | 4200

Kindly consider the entry below.
Problem: State the recorded IC50 for this entry: CN(C)C[C@H]1CC[C@H](CNc2cc(Nc3ccnc(-c4cn[nH]c4)n3)ncc2C(=O)C2CC2)CC1 [Example 59]
Result: 136

---

Measured IC50 values are reported for all entries that follow.
Target: EGFR del19/T790M/C797S (Homo sapiens, UniProt P00533, C797S/DEL746-750/T790M)
Experiment: Biochemical EGFR kinase assay (Lance Ultra TR-FRET), del19/T790M/C797S
Conditions: Km ATP; read-out: IC50 del19/T790M/C797S (nM) Km ATP
Express your answer in nM, writing the number without its unit.

Worked set:
molecule | unit abbreviation | IC50
CN(C)C1CCN(CCNc2cc(Nc3ccnc(-c4cnn(S(=O)(=O)C5CC5)c4)n3)ncc2C(=O)C2CC2)CC1 | nM | 0.4
CN(C)CCN1CCC(Nc2cc(Nc3ccnc(-c4cnn(S(=O)(=O)C5CC5)c4)n3)ncc2C(=O)C2CC2)CC1 | nM | 1
O=C(c1cnc(Nc2ccnc(-c3cnn(S(=O)(=O)C4CC4)c3)n2)cc1NC1CCC(CO)C1)C1CC1 (stereo not drawn) | nM | 0.2
CC(=O)c1cnc(Nc2ccnc(-c3cnn(S(=O)(=O)C4CC4)c3)n2)cc1NC1CCC(CO)C1 (stereo not drawn) | nM | 0.1
CN(C)C[C@H]1CC[C@H](CNc2cc(Nc3ccnc(-c4cn[nH]c4)n3)ncc2C(=O)C2CC2)CC1 | nM | 1.2

Problem: State the recorded IC50 for this entry: O=C(c1cnc(Nc2ccnc(-c3cnn(S(=O)(=O)C4CC4)c3)n2)cc1NC[C@H]1CC[C@H](CNC2CCCC2)CC1)C1CC1
Result: 0.3

Problem: State the recorded IC50 for this entry: CC(C)Nc1cc(Nc2ccnc(-c3cnn(S(=O)(=O)C4CC4)c3)n2)ncc1C(=O)NCC(F)F
Result: 14.9

---

Biological target: UniProtKB P00533
Assay: Biochemical EGFR kinase assay (Lance Ultra TR-FRET), wildtype
Conditions: IC50 WT (nM) 100 μM ATP, 100 μM ATP
measure: IC50

Worked set:
compound | IC50
O=C(c1cnc(Nc2ccnc(-c3cnn(S(=O)(=O)C4CC4)c3)n2)cc1NC1CC[C@@H](O)[C@@H](O)C1)C1CC1 (stereo partly shown) | > 10000 nM
CNC[C@H]1CC[C@H](CNc2cc(Nc3ccnc(-c4cnn(S(=O)(=O)C5CC5)c4)n3)ncc2C(=O)C2CC2)CC1 | 532 nM

Problem: State the recorded IC50 for this entry: C[C@]1(O)CC[C@@H](Nc2cc(Nc3ccnc(-c4cnn(S(=O)(=O)C5CC5)c4)n3)ncc2C(=O)C(F)F)CC1
Result: > 10000 nM

Problem: State the recorded IC50 for this entry: CC1(CO)CCN(c2cc(Nc3ccnc(-c4cnn(S(=O)(=O)C5CC5)c4)n3)ncc2F)CC1
Result: > 10000 nM

---

Target: EGFR wildtype (WT) (Homo sapiens)
Test: Biochemical EGFR kinase assay (Lance Ultra TR-FRET), wildtype
Conditions: Km ATP; read-out: IC50 WT (nM) Km ATP
Measured IC50 values are reported for all entries that follow.
Express your answer in nM, writing the number without its unit.

Worked set:
compound | study system | IC50 (nM)
CN(C)C1CCN(CCNc2cc(Nc3ccnc(-c4cnn(S(=O)(=O)C5CC5)c4)n3)ncc2C(=O)C2CC2)CC1 | EGFR wildtype (WT) (Homo sapiens) | 63.5
CC(=O)c1cnc(Nc2ccnc(-c3cnn(S(=O)(=O)C4CC4)c3)n2)cc1NC(C)(C)C(C)O (stereo not shown) | EGFR wildtype (WT) (Homo sapiens) | 1410
C[C@]1(O)CC[C@@H](Nc2cc(Nc3ccnc(-c4cnn(S(=O)(=O)C5CC5)c4)n3)ncc2C(=O)NCCF)CC1 | EGFR wildtype (WT) (Homo sapiens) | 12

Problem: Param readout= IC50; system= EGFR wildtype (WT) (Homo sapiens); entry= O=C(c1cnc(Nc2ccnc(-c3cnn(S(=O)(=O)C4CC4)c3)n2)cc1N[C@H]1CC[C@](O)(CO)CC1)C1CC1 ; returns value.
Result: 47.6

Problem: Param readout= IC50; system= EGFR wildtype (WT) (Homo sapiens); entry= CN(C)Cc1ccc(CNc2cc(Nc3ccnc(-c4cnn(C(F)F)c4)n3)ncc2C(=O)C2CC2)cc1 ; returns value.
Result: 176

Problem: Param readout= IC50; system= EGFR wildtype (WT) (Homo sapiens); entry= CNC[C@H]1CC[C@H](CNc2cc(Nc3ccnc(-c4cnn(S(=O)(=O)C5CC5)c4)n3)ncc2C(=O)C2CC2)CC1 ; returns value.
Result: 4.9

Problem: Param readout= IC50; system= EGFR wildtype (WT) (Homo sapiens); entry= CC(C)Nc1cc(Nc2ccnc(-c3cnn(S(=O)(=O)C4CC4)c3)n2)ncc1C(=O)C1CC1 ; returns value.
Result: 566
